// Blocking current level collected for α-HL-Pol6 nanopore-polymerase conjugate

Use these answered entries as a reference point.
For the substance shown here, (dA6P)2-dT5-(BHEB)-dT14-C3: two dA6P linked via doubler-linker to tag SEQ ID NO: 109 (DNA TTTTTNTTTTTTTTTTTTTT; two dA6P via doubler linker, BHEB, C3 cap, chemistry not fully specified) , give the reported Blocking current level. 0.88+/−0.03 Fraction of Open Current

Param item: (dC6P)2-dT20-C3: two dC6P linked via doubler-linker to tag SEQ ID NO: 105 (DNA tttttttttttttttttttt; two dC6P via doubler linker, C3 cap; (20)..(20) T-propanol) 0.76+/−0.04 Fraction of Open Current

Param item: (dG6P)2-dT6-(Tmp)6-dT8-C3: two dG6P linked via doubler-linker to tag SEQ ID NO: 107 (DNA TTTTTTNNNNNNTTTTTTTT; two dG6P via doubler linker, Tmp, C3 cap; (7)..(12) thymidine methylphosphonate; (20)..(20) T-propanol) 0.38+/−0.08 Fraction of Open Current

From here, focus on the item given below.
For the substance shown here, (dT6P)2-dT4-(N3CE-dT)3-dT13-C3: two dT6P linked via doubler-linker to tag SEQ ID NO: 106 (DNA TTTTNNNTTTTTTTTTTTTT; chemistry not fully specified) , give the reported Blocking current level. 0.62+/−0.05 Fraction of Open Current
